Values were extracted from ChEMBL document CHEMBL5661955.

test: Functional CPE-based assay to measure dose dependent changes in cell viability from drug treatment in Vero E6 miRFP670 cells. Cells are treated with antiviral candidates that have been serially diluted. Cytotoxicity is reported via analysis of MTS assays in uninfected cells. The assay has been performed by KU Leuven.; format: toxicity, Vero C1008; settings: chlorocebus sabaeus, Vero E6 miRFP670 cells
endpoint-label: CC50 (µM)
Give the number; µM is assumed, so skip it.

Worked examples, 5 compounds total:
CC(C)c1nc2c(C(=O)Nc3ccc4c(c3)CNC4)cc(Br)cc2[nH]1 :: 2.65
C[C@@]1(c2cccc(CN)c2)C[C@H]1c1cc(Cl)cc(NC(=O)OCc2ccccc2)c1 :: 2.61
COc1cccc(-c2ccc([C@@H](NC(=O)OCc3ccccc3)C(=O)Nc3cccc(CN)c3)cc2)c1 :: 6.76
CCc1cc(C(=O)Nc2cccc(CN)c2)sc1-c1ccc(Cl)cc1 :: 4.86
O=C(Nc1ccc2c(c1)CNC2)c1cc(Cl)cc2[nH]ncc12 :: 49.7

Which CC50 is listed for O=C(Nc1ccc2c(c1)CNCCC2)c1cc(Cl)cc2[nH]ncc12 ?
1.42

What about this compound? O=C(Nc1ccc2c(c1)CNC2)c1cc(Br)cc2[nH]c(Cc3ccccc3)nc12
11.6

Same question, C=CC[C@H](Nc1ccc(-c2nn[nH]n2)cc1)c1cc(Cl)cc(NC(=O)OCc2ccccc2)c1 this time
46.2

Field entry: NCc1cccc(CCc2cc(Cl)cc(NC(=O)OCc3ccccc3)c2)c1
5.46
